Biological target: VIM-2 metallo β-lactamase (Pseudomonas aeruginosa, UniProt Q9K2N0)
Construct: made in house; host or cells: E. coli BL21(DE3)
Assay: β-lactamase enzyme inhibition, VIM-2
Assay type: biochemical
Conditions: Nitrocefin 100 μM, 486 nm; 15 min at 37° C. preincubation; read-out: IC50 VIM-2 (Class B)
PROPERTY LABEL: IC50

- COMPOUND: "O=C(/C=C/c1cocn1)N[C@H]1Cc2cccc(C(=O)O)c2OB1O [Example 44]"
  TARGET SYSTEM: "VIM-2 metallo β-lactamase (Pseudomonas aeruginosa, UniProt Q9K2N0)"
  RECORDED VALUE: "100 to 1000 nM"
- COMPOUND: "O=C(/C=C/Cl)N[C@H]1Cc2cccc(C(=O)O)c2OB1O [Example 12]"
  TARGET SYSTEM: "VIM-2 metallo β-lactamase (Pseudomonas aeruginosa, UniProt Q9K2N0)"
  RECORDED VALUE: "100 to 1000 nM"
- COMPOUND: "N#CCCC(=O)N[C@H]1Cc2cccc(C(=O)O)c2OB1O [Example 8]"
  TARGET SYSTEM: "VIM-2 metallo β-lactamase (Pseudomonas aeruginosa, UniProt Q9K2N0)"
  RECORDED VALUE: "100 to 1000 nM"
- COMPOUND: "CC(C)(C#N)CC(=O)N[C@H]1Cc2cccc(C(=O)O)c2OB1O [Example 43]"
  TARGET SYSTEM: "VIM-2 metallo β-lactamase (Pseudomonas aeruginosa, UniProt Q9K2N0)"
  RECORDED VALUE: "100 to 1000 nM"
- COMPOUND: "CC(C)(Cl)CCC(=O)N[C@H]1Cc2cccc(C(=O)O)c2OB1O [Example 24]"
  TARGET SYSTEM: "VIM-2 metallo β-lactamase (Pseudomonas aeruginosa, UniProt Q9K2N0)"
  RECORDED VALUE: "1000 to 10000 nM"
- COMPOUND: "CS(=O)(=O)NCCC(=O)N[C@H]1Cc2cccc(C(=O)O)c2OB1O [Example 22]"
  TARGET SYSTEM: "VIM-2 metallo β-lactamase (Pseudomonas aeruginosa, UniProt Q9K2N0)"
  RECORDED VALUE: "1000 to 10000 nM"
- COMPOUND: "N#CCC(=O)N[C@H]1Cc2cccc(C(=O)O)c2OB1O [Example 2]"
  TARGET SYSTEM: "VIM-2 metallo β-lactamase (Pseudomonas aeruginosa, UniProt Q9K2N0)"
  RECORDED VALUE: "1000 to 10000 nM"
- COMPOUND: "CCCC(=O)N[C@H]1Cc2cccc(C(=O)O)c2OB1O [Example 1]"
  TARGET SYSTEM: "VIM-2 metallo β-lactamase (Pseudomonas aeruginosa, UniProt Q9K2N0)"
  RECORDED VALUE: "1000 to 10000 nM"
- COMPOUND: "CS(=O)(=O)CCC(=O)N[C@H]1Cc2cccc(C(=O)O)c2OB1O [Example 21]"
  TARGET SYSTEM: "VIM-2 metallo β-lactamase (Pseudomonas aeruginosa, UniProt Q9K2N0)"
  RECORDED VALUE: "1000 to 10000 nM"

----------
Target: VIM-2 metallo β-lactamase (Pseudomonas aeruginosa, UniProt Q9K2N0)
Experiment: β-lactamase enzyme inhibition, VIM-2
Details: Nitrocefin 100 μM, 486 nm; 15 min at 37° C. preincubation; read-out: IC50 VIM-2 (Class B)

- SMILES STRUCTURE: "CNS(=O)(=O)CCC(=O)N[C@H]1Cc2cccc(C(=O)O)c2OB1O"
  IC50: "1 to 10 µM"
- SMILES STRUCTURE: "NC(=O)NCCC(=O)N[C@H]1Cc2cccc(C(=O)O)c2OB1O"
  IC50: "1 to 10 µM"
- SMILES STRUCTURE: "COCCC(=O)N[C@H]1Cc2cccc(C(=O)O)c2OB1O"
  IC50: "1 to 10 µM"
- SMILES STRUCTURE: "N#CCCC(=O)N[C@H]1Cc2cc(F)c(F)c(C(=O)O)c2OB1O"
  IC50: "1 to 10 µM"
- SMILES STRUCTURE: "O=C(CCC(=O)C(F)(F)F)N[C@H]1Cc2cccc(C(=O)O)c2OB1O"
  IC50: "1 to 10 µM"

----------
Molecular target: p99 AmpC β-lactamase (Enterobacter cloacae, UniProt P05364)
Sequence (P05364 21-381): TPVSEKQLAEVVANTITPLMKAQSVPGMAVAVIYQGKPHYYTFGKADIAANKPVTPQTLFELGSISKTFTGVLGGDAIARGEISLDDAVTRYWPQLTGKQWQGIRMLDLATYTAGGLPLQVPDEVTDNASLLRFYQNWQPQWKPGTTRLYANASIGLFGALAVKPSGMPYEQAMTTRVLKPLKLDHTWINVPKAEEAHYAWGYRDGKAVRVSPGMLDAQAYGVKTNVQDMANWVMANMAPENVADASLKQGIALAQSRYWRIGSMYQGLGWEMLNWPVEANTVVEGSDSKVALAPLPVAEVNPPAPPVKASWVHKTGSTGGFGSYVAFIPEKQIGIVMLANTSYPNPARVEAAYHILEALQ
Test: β-lactamase enzyme inhibition, p99 AmpC
Reported IC50 by item:

- COMPOUND: "NS(=O)(=O)CCC(=O)N[C@H]1Cc2cccc(C(=O)O)c2OB1O [Example 35]"
  IC50: "< 100 nM"
- COMPOUND: "O=C(CCC(F)(F)F)N[C@H]1Cc2cccc(C(=O)O)c2OB1O [Example 7]"
  IC50: "< 100 nM"
- COMPOUND: "N#CCCC(=O)N[C@H]1Cc2cccc(C(=O)O)c2OB1O [Example 8]"
  IC50: "< 100 nM"
- COMPOUND: "CC(=O)CCC(=O)N[C@H]1Cc2cc(F)c(F)c(C(=O)O)c2OB1O [Example 50]"
  IC50: "100 to 1000 nM"
- COMPOUND: "CC(=O)CCCC(=O)N[C@H]1Cc2cccc(C(=O)O)c2OB1O [Example 13]"
  IC50: "< 100 nM"

----------
Biological target: KPC-2 β-lactamase (Klebsiella pneumoniae)
Construct: made in house; host or cells: E. coli BL21(DE3)
Sequence (Q9F663 25-293, looked up): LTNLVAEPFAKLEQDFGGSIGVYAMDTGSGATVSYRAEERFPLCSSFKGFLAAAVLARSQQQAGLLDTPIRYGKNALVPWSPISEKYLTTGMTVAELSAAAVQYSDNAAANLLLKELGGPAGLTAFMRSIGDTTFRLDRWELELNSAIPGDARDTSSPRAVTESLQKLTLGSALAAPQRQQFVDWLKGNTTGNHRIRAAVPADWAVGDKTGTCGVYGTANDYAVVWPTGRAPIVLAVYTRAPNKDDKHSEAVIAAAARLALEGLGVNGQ
Assay: β-lactamase enzyme inhibition, KPC-2
Type: biochemical
pIC50: −log10 of the molar value.
PROPERTY LABEL: pIC50

- COMPOUND: "CCC(=O)N[C@H]1Cc2cccc(C(=O)O)c2OB1O [Example 62]"
  RECORDED VALUE: "> 7.00"
- COMPOUND: "NS(=O)(=O)CCC(=O)N[C@H]1Cc2cccc(C(=O)O)c2OB1O [Example 35]"
  RECORDED VALUE: "> 7.00"
- COMPOUND: "CC(=O)CCC(=O)N[C@H]1Cc2cccc(C(=O)O)c2OB1O [Example 10]"
  RECORDED VALUE: "6.00 to 7.00"
- COMPOUND: "CCCC(=O)N[C@H]1Cc2cccc(C(=O)O)c2OB1O [Example 1]"
  RECORDED VALUE: "> 7.00"

----------
Biological target: VIM-2 metallo β-lactamase (Pseudomonas aeruginosa, UniProt Q9K2N0)
Test: β-lactamase enzyme inhibition, VIM-2
Settings: Nitrocefin 100 μM, 486 nm; 15 min at 37° C. preincubation; read-out: IC50 VIM-2 (Class B)
Reported IC50 by item:
PROPERTY LABEL: IC50

- MOLECULE: "CC(=O)NCCC(=O)N[C@H]1Cc2cccc(C(=O)O)c2OB1O"
  RECORDED VALUE: "1 to 10 µM"
- MOLECULE: "CS(=O)(=O)CCCC(=O)N[C@H]1Cc2cccc(C(=O)O)c2OB1O"
  RECORDED VALUE: "1 to 10 µM"
- MOLECULE: "CON=C(C)CCC(=O)N[C@H]1Cc2cccc(C(=O)O)c2OB1O"
  RECORDED VALUE: "1 to 10 µM"
- MOLECULE: "CC(C)(C)C(=O)CCC(=O)N[C@H]1Cc2cccc(C(=O)O)c2OB1O"
  RECORDED VALUE: "1 to 10 µM"
- MOLECULE: "CC(O)(O)C(=O)N[C@H]1Cc2cccc(C(=O)O)c2OB1O"
  RECORDED VALUE: "1 to 10 µM"
- MOLECULE: "O=C(O)c1cccc2c1OB(O)[C@@H](NC(=O)C(Cl)CC(F)F)C2 (stereo partly shown)"
  RECORDED VALUE: "1 to 10 µM"
- MOLECULE: "O=C(CCc1cocn1)N[C@H]1Cc2cccc(C(=O)O)c2OB1O"
  RECORDED VALUE: "1 to 10 µM"
- MOLECULE: "COC(=O)NCC(=O)N[C@H]1Cc2cccc(C(=O)O)c2OB1O"
  RECORDED VALUE: "1 to 10 µM"
- MOLECULE: "CN(C)C(=O)CCC(=O)N[C@H]1Cc2cccc(C(=O)O)c2OB1O"
  RECORDED VALUE: "10 to 100 µM"
- MOLECULE: "CC(C)CC(=O)N[C@H]1Cc2cccc(C(=O)O)c2OB1O"
  RECORDED VALUE: "1 to 10 µM"
- MOLECULE: "CC(=O)/C=C/C(=O)N[C@H]1Cc2cccc(C(=O)O)c2OB1O"
  RECORDED VALUE: "0.1 to 1 µM"
- MOLECULE: "N#CCCCC(=O)N[C@H]1Cc2cccc(C(=O)O)c2OB1O"
  RECORDED VALUE: "1 to 10 µM"
- MOLECULE: "CC(=O)N[C@H]1Cc2cccc(C(=O)O)c2OB1O"
  RECORDED VALUE: "1 to 10 µM"
- MOLECULE: "O=C(CNC(=O)c1ccccc1)N[C@H]1Cc2cccc(C(=O)O)c2OB1O"
  RECORDED VALUE: "10 to 100 µM"
- MOLECULE: "O=C(CCc1cncs1)N[C@H]1Cc2cccc(C(=O)O)c2OB1O"
  RECORDED VALUE: "1 to 10 µM"
- MOLECULE: "O=C(CCn1ccnc1)N[C@H]1Cc2cccc(C(=O)O)c2OB1O"
  RECORDED VALUE: "1 to 10 µM"
- MOLECULE: "CS(=O)(=O)NCCC(=O)N[C@H]1Cc2cc(F)c(F)c(C(=O)O)c2OB1O"
  RECORDED VALUE: "1 to 10 µM"
- MOLECULE: "CCOCC(=O)N[C@H]1Cc2cccc(C(=O)O)c2OB1O"
  RECORDED VALUE: "1 to 10 µM"
- MOLECULE: "CCC(=O)N[C@H]1Cc2cccc(C(=O)O)c2OB1O"
  RECORDED VALUE: "1 to 10 µM"
